# ASSAY_NAME: qHTS profiling of the MIPE4 collection as inhibitors of Plasmodium falciparum (HB3) proliferation (AID 743347);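 note: plate controls were DMSO vehicle wells for no effect and artemisinin wells for full effect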
# RUN_PARAMETERS: P. falciparum HB3 in erythrocytes, SYBR Green DNA, 72 h; at 28.5 µM (top of the series) unless noted
Label rule met when growth, % of control is strictly below 9%; at or above that, label rule not met.

* COc1cc2nc(N3CCN(C(=O)C4COc5ccccc5O4)CC3)nc(N)c2cc1OC (stereo unspecified) | rule met
* O=C1Cc2cc(CCN3CCN(c4nsc5ccccc45)CC3)c(Cl)cc2N1 | rule not met
* Cc1ccc(C(=O)Nc2ccc(S(=O)(=O)O)c3cc(S(=O)(=O)O)cc(S(=O)(=O)O)c23)cc1NC(=O)c1cccc(NC(=O)Nc2cccc(C(=O)Nc3cc(C(=O)Nc4ccc(S(=O)(=O)O)c5cc(S(=O)(=O)O)cc(S(=O)(=O)O)c45)ccc3C)c2)c1 | rule not met
* N[C@@H](Cc1c[nH]c2ccc(O)cc12)C(=O)O | rule not met
* O=C(Nc1ccc([N+](=O)[O-])cc1Cl)c1cc(Cl)ccc1O | rule met
* NC(CO)C(=O)NNCc1ccc(O)c(O)c1O (stereo unspecified) | rule not met
* COc1ccc2c(c1)c(CC(=O)O)c(C)n2C(=O)c1ccc(Cl)cc1 | rule not met
* Cc1ccccc1N1C(=O)c2cc(S(N)(=O)=O)c(Cl)cc2NC1C (stereo unspecified) | rule not met
* CN(C)CCC=C1c2ccccc2C=Cc2ccccc21 | rule not met

###

# TESTED_TARGET: N-terminal Xaa-Pro-Lys N-methyltransferase 1 (Homo sapiens) (UniProt Q9BV86)
# Sequence (Q9BV86 whole entry, looked up): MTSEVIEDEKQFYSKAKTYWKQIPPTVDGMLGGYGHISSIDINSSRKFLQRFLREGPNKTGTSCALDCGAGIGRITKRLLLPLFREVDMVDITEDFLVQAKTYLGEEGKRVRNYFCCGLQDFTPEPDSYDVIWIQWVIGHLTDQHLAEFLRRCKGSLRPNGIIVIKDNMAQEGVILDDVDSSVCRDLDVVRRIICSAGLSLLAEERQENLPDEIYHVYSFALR
# ASSAY_NAME: qHTS Assay for Inhibitors of N-terminal methyltransferase 1 (NTMT1): LOPAC validation of the NTMT1 SAHH-coupled ThioGlo3 Assay (AID 1347143);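 note: SAH from peptide methylation measured as thiol fluorescence via SAHH coupling and ThioGlo3; nearly all actives have a fitted effect of over 70% in size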
# RUN_PARAMETERS: recombinant NTMT1, SAHH-coupled ThioGlo3 fluorescence; series mostly up to 114 µM
Results filed as inconclusive are left out. Activity calls are given as the source filed them. Calls come from the whole dose curve; as a rule, active = well fitted inhibition curve with a large enough effect; inconclusive = small, poorly fitted or top-dose-only effect; inactive = no such curve, though single readings can be large or run the other way.
Possible outcomes: active, inactive

* Cc1cc(C(C)(C)C)cc(C)c1CC1=NCCN1 | inactive
* CCC1(C)CC(=O)NC1=O (stereo unspecified) | inactive
* CCc1cccc2c3c([nH]c12)C(CC)(CC(=O)O)OCC3 (stereo unspecified) | inactive
* CN(Cc1cnc2nc(N)nc(N)c2n1)c1ccc(C(=O)N[C@@H](CCC(=O)O)C(=O)O)cc1 | active
* O=C1c2c(O)ccc(O)c2C(=O)c2c(NCCNCCO)ccc(NCCNCCO)c21 | active
* CC(=O)OCC(CCn1cnc2cnc(N)nc21)COC(C)=O | active
* O=C1Cc2cc(CCN3CCN(c4nsc5ccccc45)CC3)c(Cl)cc2N1 | active
* COc1cc2nc(N3CCN(C(=O)c4ccco4)CC3)nc(N)c2cc1OC | active
* CC#C[C@]1(O)CC[C@H]2[C@@H]3CCC4=CC(=O)CCC4=C3[C@@H](c3ccc(N(C)C)cc3)C[C@@]21C | active
* CN1C2CCC1CC(OC(=O)C(CO)c1ccccc1)C2 (stereo unspecified) | inactive
* CCN1CCCC1CNC(=O)c1cc(S(=O)(=O)CC)c(N)cc1OC (stereo unspecified) | inactive

###

# System: HeLa
# ASSAY_NAME: Primary qHTS to identify gynecologic anti-cancer compounds using libraries of approved drugs and bioactive compounds (AID 1345084); note: nearly all actives have a fitted effect of over 55% in size
# RUN_PARAMETERS: Gynecologic cancer cell panel viability, ATPlite luminescence, 48 h; series mostly up to 57.5 µM
Inconclusive results are not listed. The source made the active and inactive calls. Calls follow the shape of the dose curve; as a rule, active = well fitted cell-killing curve with a large enough effect; inconclusive = small, poorly fitted or top-dose-only effect, or effect the other way; inactive = flat fitted curve, though single readings scatter.
Labels: active, inactive

• Cc1cn([C@H]2C=C[C@@H](CO)O2)c(=O)[nH]c1=O = inactive
• CCc1cccc2c3c([nH]c12)C(CC)(CC(=O)O)OCC3 (configuration not stated) = inactive
• NCCS(=O)(=O)O = inactive
• Clc1ccc(C(c2ccccc2Cl)C(Cl)Cl)cc1 (configuration not stated) = inactive
• CCCCc1oc2ccccc2c1C(=O)c1cc(I)c(OCCN(CC)CC)c(I)c1 = inactive
• C[C@@H]1CC(=O)NN=C1c1ccc(NN=C(C#N)C#N)cc1 = inactive
• Cc1cc(C(C)(C)C)c(O)c(C)c1CC1=NCCN1 = inactive
• CC(C(=O)O)c1cccc(C(=O)c2ccccc2)c1 (configuration not stated) = inactive
• CC(COc1ccccc1)N(CCCl)Cc1ccccc1 (configuration not stated) = inactive
• O=C1c2c(O)ccc(O)c2C(=O)c2c(NCCNCCO)ccc(NCCNCCO)c21 = active
• NC12CC3CC(CC(C3)C1)C2 = inactive
• Cc1cnc(C(=O)NCCc2ccc(S(=O)(=O)NC(=O)NC3CCCCC3)cc2)cn1 = inactive

###

# ASSAY_NAME: Quantitative high throughput screen for delayed death inhibitors of the malarial parasite plastid, 48 hour incubation (AID 488752); note: nearly all actives have a fitted effect of over 65% in size
# RUN_PARAMETERS: Plasmodium falciparum growth; series mostly up to 28.7 µM
Results filed as inconclusive are left out. The source made the active and inactive calls. Calls follow the shape of the dose curve; as a rule, active = well fitted inhibition curve with a large enough effect; inconclusive = small, poorly fitted or top-dose-only effect, or effect the other way; inactive = flat fitted curve, though single readings scatter.
Outcomes: active, inactive

* COc1ccccc1OCC(O)CN1CCN(CC(=O)Nc2c(C)cccc2C)CC1 (centres undefined) | inactive
* Cn1c(=O)c2c(ncn2C)n(C)c1=O | inactive
* CN(C)CCCN1c2ccccc2CCc2ccc(Cl)cc21 | active
* CN1CCN2c3ccccc3Cc3ccccc3C2C1 (centres undefined) | inactive

###

# ASSAY_NAME: qHTS Assay for Identification of Small Molecule Agonists for Thrombopoietin (TPO) Signaling Pathway (AID 917)
# RUN_PARAMETERS: TPO signaling pathway reporter cells, agonist qHTS, stimulated with TPO at its EC50; series mostly up to 38.5 µM
Inconclusive results are not listed. Active and inactive are the calls of the source. Calls come from the whole dose curve; as a rule, active = well fitted activation curve with a large enough effect; inconclusive = small, poorly fitted or top-dose-only effect, or effect the other way; inactive = flat fitted curve, though single readings scatter.
Outcome codes: active, inactive

* CN(Cc1cnc2nc(N)nc(N)c2n1)c1ccc(C(=O)N[C@@H](CCC(=O)O)C(=O)O)cc1 | inactive
* Cc1ccccc1N1C(=O)c2cc(S(N)(=O)=O)c(Cl)cc2NC1C (configuration not stated) | inactive
* NS(=O)(=O)c1cc2c(cc1Cl)NCNS2(=O)=O | inactive
* O=c1c(-c2ccc(O)cc2)coc2cc(O)cc(O)c12 | active
* NC(=O)OCC(COC(N)=O)c1ccccc1 | inactive
* C[C@](N)(Cc1ccc(O)c(O)c1)C(=O)O | inactive
* Cn1cnc2c1c(=O)[nH]c(=O)n2C | inactive
* CCc1cccc2c3c([nH]c12)C(CC)(CC(=O)O)OCC3 (configuration not stated) | inactive
* CN(C)c1nc(N(C)C)nc(N(C)C)n1 | inactive
* Nc1nc2c(ncn2COC(CO)CO)c(=O)[nH]1 | inactive
* CCOC(=O)C(C)(C)Oc1ccc(Cl)cc1 | inactive
* COc1ccc2c(c1)c(CC(=O)O)c(C)n2C(=O)c1ccc(Cl)cc1 | inactive
* CN1C(C(=O)Nc2ccccn2)=C(O)c2ccccc2S1(=O)=O | inactive
* O=C(c1ccc(F)cc1)C1CCN(CCn2c(=O)[nH]c3ccccc3c2=O)CC1 | inactive
* NC12CC3CC(CC(C3)C1)C2 | inactive
* CCOC(=O)Nc1ccc(NCc2ccc(F)cc2)nc1N | inactive
* CCOC(=O)c1ncn2c1CN(C)C(=O)c1cc(F)ccc1-2 | inactive
* Cc1cc(C(C)(C)C)c(O)c(C)c1CC1=NCCN1 | inactive
* Cc1cc(C(C)(C)C)cc(C)c1CC1=NCCN1 | inactive
* Cn1c(=O)c2c(ncn2C)n(C)c1=O | inactive
* Cc1cn([C@H]2C=C[C@@H](CO)O2)c(=O)[nH]c1=O | inactive
* COc1ccc2[nH]cc(CCNC(C)=O)c2c1 | inactive
* Cc1cnc(C(=O)NCCc2ccc(S(=O)(=O)NC(=O)NC3CCCCC3)cc2)cn1 | inactive
* Cn1c(=O)c2[nH]cnc2n(C)c1=O | inactive
* NC(=O)NO | inactive
* CCC1(c2ccccc2)C(=O)NCNC1=O | inactive
* Nc1nnc(-c2cccc(Cl)c2Cl)c(N)n1 | inactive

###

# ASSAY_NAME: qHTS profiling for inhibitors of Plasmodium falciparum proliferation (AID 504749);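 note: 0% = DMSO vehicle and full inhibition = artemisinin control; nearly all actives have a fitted effect of over 60% in size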
# RUN_PARAMETERS: P. falciparum in erythrocytes, SYBR Green DNA, 72 h; at 12.8 µM (top of the series); parasite line B
Inconclusive results are not listed.
Collected activity, negative = inhibition values appear next to each entry.
OBSERVATION_TYPE: activity, negative = inhibition (%)

* NCCCCCC(=O)O | 5.54
* CS(=O)(=O)Nc1ccc([N+](=O)[O-])cc1Oc1ccccc1 | 9.68
* Nc1nc2c(ncn2COC(CO)CO)c(=O)[nH]1 | 8.95
* COc1nc(C)nc(Cl)c1NC1=NCCN1 | 0.89

###

# ASSAY_NAME: qHTS profiling of the MIPE4 collection as inhibitors of Plasmodium falciparum (DD2) proliferation (Rep 2) (AID 743346)
# RUN_PARAMETERS: P. falciparum Dd2 in erythrocytes, SYBR Green DNA, 72 h; at 28.5 µM (top of the series) unless noted
OBSERVATION_TYPE: parasite growth, % of control (lower = inhibition) (%)

- Cn1cnc2c1c(=O)[nH]c(=O)n2C: 25.4
- CN(C)c1nc(N(C)C)nc(N(C)C)n1: 104
- Clc1ccc(C(c2ccccc2Cl)C(Cl)Cl)cc1 (stereo not drawn): 54.8
